# assay_text: gradient 5% acetonitrile 3 min, to 50% in 2 min, to 85% in 15 min, held 3 min, 100 µL/min
# protocol_conditions: column: Zorbax Extend-C18 2.1 x 50 mm; eluents: water / acetonitrile, 0.1% formic acid
readout_label: RP-LC retention time (s)
Numbers only, in s.

Solved cases (5 shown):
compound="COc1ccc(C(=O)N2CCCC(COc3ccc(C(=O)NC(C)C)cc3)C2)c(C)c1 (centres undefined)" units_label=s readout_value=842
compound=CCN(CC)S(=O)(=O)N1CCC(C(=O)N2CCN(Cc3noc4ccccc34)CC2)CC1 units_label=s readout_value=708
compound=O=C(Cn1cccc1-c1nnc(C2CC2)o1)Nc1ccc(F)c(Cl)c1 units_label=s readout_value=908
compound=Cc1noc(/C=C/c2ccc(S(=O)(=O)N3CCCCC3)s2)c1NC(=O)C1CC1 units_label=s readout_value=901
compound="CCn1nccc1C(=O)N1CCC(c2nc3ccncc3n2CC(C)C)C1 (centres undefined)" units_label=s readout_value=555

Go through the list and state RP-LC retention time for each entry.
1. O=C(C1CCN(c2ncccc2-c2nc(-c3cccc(F)c3)no2)CC1)N1CCC2(CC1)OCCO2
2. CCOc1ccc(-c2ccc(=O)n(CCc3nc(-c4ccc(SC)cc4)no3)n2)cc1
3. O=C(NCCS(=O)(=O)N1CCc2ccccc2C1)c1ccc([N+](=O)[O-])o1

1010
1030
752
